Hi there, I'd appreciate the recorded IC50 for every entry that follows.
Test system: ApoB-100-associated lipoproteins
Test: Inhibition of the release of ApoB-100-associated lipoproteins from liver cells (HepG2), immunoassay for human LDL
Type: cell-based
Conditions: release of ApoB-100-associated particles into HepG2 culture supernatant, 50% inhibition of light adsorption at 450 nm vs solvent control
Could you give the number and then its unit, please?

{"Molecule": "O=C(NCc1ccccc1)[C@H](c1ccc(OCc2ccc3ccccc3n2)cc1)C1CCCCCC1", "IC50": "0.02 µM"}
{"Molecule": "O=C(NC(CO)c1cccc(F)c1)C(c1ccc(OCc2ccc3ccccc3n2)cc1)C1CCCC1 (stereo not shown)", "IC50": "0.5 µM"}
{"Molecule": "O=C(NC(CO)c1cccs1)C(c1ccc(OCc2ccc3ccccc3n2)cc1)C1CCCC1 (stereo not shown)", "IC50": "0.25 µM"}

IN: Would you kindly share the measured IC50 for O=C([C@H](c1ccc(OCc2ccc3ccccc3n2)cc1)C1CCCCCC1)N(CCO)c1ccccc1 ?
OUT: 0.13 µM
